- system tested: T1, KRPPGFSPFR-biotin
- T1 construct: also called KD-b; KD-biotin
- T1 peptide: KRPPGFSPFR-biotin
- assay details: Biacore, biotin-peptide on SA chip;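 further: purified antibodies injected as twofold dilutions from 0.1 to 10 nM in HBS-EP over streptavidin-captured biotinylated BKR1 or BKR2 ligand peptides, with a random-peptide flow cell as reference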
Ends that are not written are not given here.
readout name: kon (M⁻¹ s⁻¹)
Your answer is read as M⁻¹ s⁻¹, so omit the unit and give the number.

Record humanized F151 variant HC2b/LC2a (antibody, human IgG1, V domains shown, also called LC2axHC2b) VH: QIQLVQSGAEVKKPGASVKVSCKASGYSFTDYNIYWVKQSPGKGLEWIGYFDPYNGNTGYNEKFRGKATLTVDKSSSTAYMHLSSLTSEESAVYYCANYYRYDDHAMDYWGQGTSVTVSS VL: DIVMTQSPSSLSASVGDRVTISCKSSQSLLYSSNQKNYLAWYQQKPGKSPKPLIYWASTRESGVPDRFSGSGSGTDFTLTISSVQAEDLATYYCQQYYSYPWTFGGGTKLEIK , field kon: 375000
